Origin of the recorded values: PubChem BioAssay (NCI)

# Test system: LOX IMVI melanoma
# PROTOCOL SUMMARY: NCI-60 one-dose screen, 48 h
# CONDITIONS USED: 10 µM unless noted
About 83,000 compounds went through this panel and 20% of them were active in at least one assay; those are over-represented in the sample as a whole. Calls of active or inactive are those of the source. How the source made its calls: active means growth percent below 10; inactive means the rest.
Outcome codes: y = active, n = inactive

INSERT INTO measurements (structure_smiles, target_entity, assigned_category) VALUES
  ('O=C(/C=C/Nc1ccc(S(=O)(=O)O)cc1)c1ccc(F)cc1', 'LOX IMVI melanoma', 'n'),
  ('c1ccc(-c2c(-c3ccccc3)[n+](Cc3ccc4ccccc4c3)c(-c3ccccc3)n2Cc2ccc3ccccc3c2)cc1', 'LOX IMVI melanoma', 'y'),
  ('N#Cc1ccc(S(=O)(=O)Nc2ccc(-c3cnc(N)[nH]3)cc2)cc1', 'LOX IMVI melanoma', 'n'),
  ('O=C(CCCCCCN1CC(=O)N2[C@@H](c3ccccc3)c3[nH]c4ccccc4c3C[C@H]2C1=O)NO', 'LOX IMVI melanoma', 'n'),
  ('N/C(=N\c1nc2ccc([N+](=O)[O-])cc2s1)C(Cl)(Cl)Cl', 'LOX IMVI melanoma', 'n');
